All figures here come from patent US11180770B2.

- System: HPPD polypeptides
- assay summary: coupled HPPD activity assay: turnover and residual turnover in crude extracts
- Type: biochemical, Pseudomonas fluorescens
- condition context: absence of Cmpd. 1; high substrate concentration; kinetic changes in absorbance (OD) at 320 nm, 30 min
metric name: Turnover
No unit in the answer, please; the number alone is enough.

Req: // lookup Turnover for 27 (protein, mutant HPPD polypeptide) MADLYENPMGLMGFEFIEFASPTPGTLEPIFEIMGFTKVATHRSKNVHLYRQGEINLILNNEPNSIASYFAAEHGPSVCGMAFRVKDSQKAYNRALELGAQPIHIDTGPMELNLPAIKGIGGAPLYLIDRFGEGSSIYDIDFVYLEGVERNPVGAGLKVIDHLTHNVYRGRMVYWANFYEKLFNFREARYFDIKGEYTGLTSKAMSAPDGMIRIPLNEESSKGAGQIEEFLMQFNGEGIQHVAFLTDDLVKTWDALKKIGMRFMTAPADNYYEMLEGRLPDHGEPVDQLQARGILLDGSSVEGDKRLLLQIFSETLMGPVFFEFIQRKGDDGFGPHSFKVLFESIERDQVRRGVLTAD
Resp: 0.266

Req: Please do the same for 50 (protein, mutant HPPD polypeptide) MADLYENPMGLMGFEFIEFASPTPGTLEPIFEIMGFTKVATHRSKNVHLYRQGEINLILNNEPNSIASYFAAEHGPSVCGMAFRVKDSQKAYNRALELGAQPIHIDTGPMELNLPAIKGIGGAPLYLIDRFGEGSSIYDIDFVYLEGVERNPVGAGLKVIDHLTHNVYRGRMVYWANFYEKLFNFREARYFDIKGEYTGLTSKAMSAPDGMIRIPLNEESSKGAGQIEEFLMQFNGEGIQHVAFLTDDLVKTWDALKKIGMRFMTAPSDNYYEMLEGRLPDHGEPVDQLQARGILLDGSSVEGDKRLLLQIFSETLMGPVFFEFIQRKGDDGFGPHSFKVLFEQMERDQVRRGVLTAD as well.
Resp: 0.315

Req: Please do the same for 53 (protein, mutant HPPD polypeptide) MADLYENPMGLMGFEFIEFASPTPGTLEPIFEIMGFTKVATHRSKNVHLYRQGEINLILNNEPNSIASYFAAEHGPSVCGMAFRVKDSQKAYNRALELGAQPIHIDTGPMELNLPAIKGIGGAPLYLIDRFGEGSSIYDIDFVYLEGVERNPVGAGLKVIDHLTHNVYRGRMVYWANFYEKLFNFREARYFDIKGEYTGLTSKAMSAPDGMIRIPLNEESSKGAGQIEEFLMQFNGEGIQHVAFLTDDLVKTWDALKKIGMRFMTAPADNYYEMLEGRLPDHGEPVDQLQARGILLDGSSVEGDKRLLLQIFSETLMGPVFFEFIQRKGDDGFGPDSFKVLFEQVERDQVRRGVLTAD as well.
Resp: 0.199

Req: Please do the same for 38 (protein, mutant HPPD polypeptide) MADLYENPMGLMGFEFIEFASPTPGTLEPIFEIMGFTKVATHRSKNVHLYRQGEINLILNNEPNSIASYFAAEHGPSVCGMAFRVKDSQKAYNRALELGAQPIHIDTGPMELNLPAIKGIGGAPLYLIDRFGEGSSIYDIDFVYLEGVERNPVGAGLKVIDHLTHNVYRGRMVYWANFYEKLFNFREARYFDIKGEYTGLTSKAMSAPDGMIRIPLNEESSKGAGQIEEFLMQFNGEGIQHVAFLTDDLVKTWDALKKIGMRFMTAPADEYYEMLEGRLPDHGEPVDQLQARGILLDGSSVEGDKRLLLQIFSETLMGPVFFEFIQRKGDDGFGPHSFKVLFESVERDQVRRGVLTAD as well.
Resp: 0.286
